# measurement.protocol: Open study, THC-CBD inhaled (pMDI) vs intravenous, plasma pharmacokinetics by GC/MS
# Type: in vivo, healthy volunteers
# recorded.conditions: human, plasma, inhaled, 720 ug; i.h., 720 mcg; read-out: elimination half-lives
The following compounds are listed with their measured half-life values.
Please respond with the number in min and leave the unit unwritten.

compound	numeric.value
CCCCCc1cc(O)c2c(c1)OC(C)(C)[C@@H]1CCC(C)=C[C@@H]21 [THC, delta-9-Tetrahydrocannabinol]	7

Given C=C(C)[C@@H]1CCC(C)=C[C@H]1c1c(O)cc(CCCCC)cc1O , state its recorded half-life.
11

---

The following compounds are listed with their measured half-life values.
# measurement.protocol: Open study, THC-CBD inhaled (pMDI) vs intravenous, plasma pharmacokinetics by GC/MS
# Assay type: in vivo, healthy volunteers
# recorded.conditions: human, plasma, iv, 720 ug; i.v., 720 mcg; read-out: elimination half-lives
Please respond with the number in min and leave the unit unwritten.

compound	experimental.readout	numeric.value
C=C(C)[C@@H]1CCC(C)=C[C@H]1c1c(O)cc(CCCCC)cc1O	half-life	24

Now take the following compound into account.
Given CCCCCc1cc(O)c2c(c1)OC(C)(C)[C@@H]1CCC(C)=C[C@@H]21 [THC, delta-9-Tetrahydrocannabinol] , state its recorded half-life.
22

---

# measurement.protocol: Solubility of local anaesthetic in ethanol and HFA 227
# recorded.conditions: ethanol, organic solvent or mixture
experimental.readout: solubility (mg/mL)
Please respond with the number in mg/mL and leave the unit unwritten.

Given CCCCNc1ccc(C(=O)OCCN(C)C)cc1 [Tetracain, Tetracaine Base] , state its recorded solubility.
450

---

# measurement.protocol: Solubility of local anaesthetic in ethanol and HFA 227
# recorded.conditions: hfa 227, organic solvent or mixture
experimental.readout: solubility (mg/mL)
Please respond with the number in mg/mL and leave the unit unwritten.

Given CCCCNc1ccc(C(=O)OCCN(C)C)cc1 [Tetracain, Tetracaine Base] , state its recorded solubility.
40
